Recorded values, source patent US20120214862A1.

Known % inhibition of human Factor 7 mRNA of a selection of substances
Test system: human Factor 7 mRNA
Assay: Inhibition of human Factor 7 mRNA by 2-10-2 MOE shortmers in HepB3 cells, electroporation, 1,000 nM
Type: cell-based
Details: electroporation, 1,000 nM oligonucleotide, approximately 24 hours, relative to untreated control cells
In the oligonucleotide strings, read from the 5' end, every base follows the letter of its sugar. An asterisk marks phosphorothioate; unmarked linkages are phosphodiester. Other units and linkages are bracketed, terminal groups are in braces. A string of capitals states the bases alone. e = 2'-O-(2-methoxyethyl) (MOE); [5mC] = 5-methylcytosine; d = 2'-deoxy (DNA)
State the answer as a number, implicitly in %.

Some substances with recorded % inhibition of human Factor 7 mRNA:
[[record]]
substance = "435847 (antisense eT*eG*dG*dT*dG*dT*dG*d[5mC]*dA*d[5mC]*dA*d[5mC]*eA*eT) [compound 435847]"
result = 36

[[record]]
substance = "435688 (antisense eA*e[5mC]*d[5mC]*dA*d[5mC]*dA*dT*dG*dG*dT*d[5mC]*dA*eG*eT) [compound 435688]"
result = 0


Alright, here's another substance for you.
# get_value(readout='% inhibition of human Factor 7 mRNA', item= 435743 (antisense eG*e[5mC]*d[5mC]*dT*d[5mC]*dA*dA*dA*d[5mC]*dA*dT*d[5mC]*eT*eA) [compound 435743] )
40

---

Test system: human Factor 7 mRNA
Experiment: Antisense inhibition of human Factor 7 mRNA in HepB3 cells, lipofectin, 50 nM, real-time RT-PCR
Assay type: cell-based
Details: HepB3 cells; gapmers targeted to nucleobases 13760 to 13789 of SEQ ID NO: 1 (Table 10)
In the oligonucleotide strings, read from the 5' end, every base follows the letter of its sugar. An asterisk marks phosphorothioate; unmarked linkages are phosphodiester. Other units and linkages are bracketed, terminal groups are in braces. A string of capitals states the bases alone. e = 2'-O-(2-methoxyethyl) (MOE); [5mC] = 5-methylcytosine; d = 2'-deoxy (DNA)
Please note: Yes applies when % Inhibition of human Factor 7 mRNA levels is 60% or greater, and No applies otherwise.

Use the examples below as a reference point.
[[record]]
substance = "422178 (antisense eA*e[5mC]*e[5mC]*d[5mC]*dG*d[5mC]*d[5mC]*dG*dG*d[5mC]*dT*d[5mC]*dT*dG*d[5mC]*dT*d[5mC]*eA*eT*e[5mC]) [compound 422178]"
test_target = "human Factor 7 mRNA"
cat = "No"

[[record]]
substance = "422261 (antisense eT*eG*d[5mC]*dG*d[5mC]*d[5mC]*dA*d[5mC]*d[5mC]*d[5mC]*dG*d[5mC]*d[5mC]*dG*dG*e[5mC]*eT*e[5mC]*eT*eG) [compound 422261]"
test_target = "human Factor 7 mRNA"
cat = "No"


Please check the record 422179 (antisense e[5mC]*eA*e[5mC]*d[5mC]*d[5mC]*dG*d[5mC]*d[5mC]*dG*dG*d[5mC]*dT*d[5mC]*dT*dG*d[5mC]*dT*e[5mC]*eA*eT) [compound 422179] and state if its % Inhibition of human Factor 7 mRNA levels is at or above 60%.
No

Would you mind doing 422182 (antisense e[5mC]*eG*e[5mC]*d[5mC]*dA*d[5mC]*d[5mC]*d[5mC]*dG*d[5mC]*d[5mC]*dG*dG*d[5mC]*dT*d[5mC]*dT*eG*e[5mC]*eT) [compound 422182] as well?
No

Would you mind doing 416456 (antisense e[5mC]*eT*eG*e[5mC]*eG*d[5mC]*d[5mC]*dA*d[5mC]*d[5mC]*d[5mC]*dG*d[5mC]*d[5mC]*dG*eG*e[5mC]*eT*e[5mC]*eT) [compound 416456] as well?
No

Would you mind doing 422258 (antisense eG*e[5mC]*d[5mC]*dA*d[5mC]*d[5mC]*d[5mC]*dG*d[5mC]*d[5mC]*dG*dG*d[5mC]*dT*d[5mC]*eT*eG*e[5mC]*eT*e[5mC]) [compound 422258] as well?
Yes

Would you mind doing 422183 (antisense eG*e[5mC]*eG*d[5mC]*d[5mC]*dA*d[5mC]*d[5mC]*d[5mC]*dG*d[5mC]*d[5mC]*dG*dG*d[5mC]*dT*d[5mC]*eT*eG*e[5mC]) [compound 422183] as well?
Yes

Would you mind doing 422109 (antisense e[5mC]*e[5mC]*e[5mC]*eG*e[5mC]*d[5mC]*dG*dG*d[5mC]*dT*d[5mC]*dT*dG*d[5mC]*dT*e[5mC]*eA*eT*e[5mC]*e[5mC]) [compound 422109] as well?
Yes

---

System: human Factor 7 mRNA
Assay: Dose-dependent antisense inhibition of human Factor 7 in HepB3 cells, transfection with lipofectin
Assay type: cell-based
Settings: 50 nM, lipofectin, HepB3 cells, 16 hours
In the oligonucleotide strings, read from the 5' end, every base follows the letter of its sugar. An asterisk marks phosphorothioate; unmarked linkages are phosphodiester. Other units and linkages are bracketed, terminal groups are in braces. A string of capitals states the bases alone. e = 2'-O-(2-methoxyethyl) (MOE); [5mC] = 5-methylcytosine; d = 2'-deoxy (DNA)
measurement-kind: percent inhibition of Factor 7 mRNA, relative to untreated control cells
Quick note: number first, unit second.

Identify the measured percent inhibition of Factor 7 mRNA, relative to untreated control cells of 422096 (antisense eA*eG*eA*e[5mC]*eA*dA*dT*dG*dG*dT*d[5mC]*dA*dG*dG*dG*e[5mC]*eT*eG*eG*eT) [compound 422096] for human Factor 7 mRNA.
68%

---

Test system: human Factor 7 mRNA
Assay: Dose-dependent antisense inhibition of human Factor 7 in HepB3 cells, transfection with lipofectin
Format: cell-based
Details: Example 2; HepB3, lipofectin, 12.5 nM, ~16 h
In the oligonucleotide strings, read from the 5' end, every base follows the letter of its sugar. An asterisk marks phosphorothioate; unmarked linkages are phosphodiester. Other units and linkages are bracketed, terminal groups are in braces. A string of capitals states the bases alone. e = 2'-O-(2-methoxyethyl) (MOE); [5mC] = 5-methylcytosine; d = 2'-deoxy (DNA)
Known percent inhibition of Factor 7 mRNA, 12.5 nM of a selection of substances
State the answer as a number, implicitly in %.

Some substances with recorded percent inhibition of Factor 7 mRNA, 12.5 nM:
[[record]]
substance = "407641 (antisense e[5mC]*e[5mC]*eT*eG*eA*dG*dG*d[5mC]*d[5mC]*dA*dG*d[5mC]*dA*dG*dA*eT*e[5mC]*eA*e[5mC]*eG) [compound 407641]"
test_target = "human Factor 7 mRNA"
result = 71

[[record]]
substance = "407643 (antisense e[5mC]*eA*e[5mC]*eA*e[5mC]*dA*dT*dG*dG*dA*dG*dT*d[5mC]*dA*dG*e[5mC]*eA*eT*e[5mC]*eG) [compound 407643]"
test_target = "human Factor 7 mRNA"
result = 68

[[record]]
substance = "407900 (antisense e[5mC]*e[5mC]*e[5mC]*e[5mC]*eA*d[5mC]*dA*dA*dT*dT*d[5mC]*dG*dG*d[5mC]*d[5mC]*eT*eT*eG*eG*eG) [compound 407900]"
test_target = "human Factor 7 mRNA"
result = 80


# get_value(readout='percent inhibition of Factor 7 mRNA, 12.5 nM', item= 407594 (antisense e[5mC]*e[5mC]*eT*eG*e[5mC]*dA*dG*d[5mC]*d[5mC]*dA*dG*dG*d[5mC]*dA*dG*e[5mC]*e[5mC]*e[5mC]*eT*eG) [compound 407594] )
63

---

System: human Factor 7 mRNA
Experiment: Inhibition of human Factor 7 mRNA by 2-10-2 MOE shortmers in HepB3 cells, electroporation, 1,000 nM
Type: cell-based
Details: electroporation, 1,000 nM oligonucleotide, approximately 24 hours, relative to untreated control cells
In the oligonucleotide strings, read from the 5' end, every base follows the letter of its sugar. An asterisk marks phosphorothioate; unmarked linkages are phosphodiester. Other units and linkages are bracketed, terminal groups are in braces. A string of capitals states the bases alone. e = 2'-O-(2-methoxyethyl) (MOE); [5mC] = 5-methylcytosine; d = 2'-deoxy (DNA)
Category scheme (% inhibition of human Factor 7 mRNA): low: < 8%; moderate: ≥ 8% and < 50%; high: ≥ 50%

Use the examples below as a reference point.
[[record]]
substance = "435773 (antisense e[5mC]*eA*dG*dG*dG*dA*dA*d[5mC]*dA*d[5mC]*d[5mC]*d[5mC]*eT*e[5mC]) [compound 435773]"
test_target = "human Factor 7 mRNA"
cat = "high"

[[record]]
substance = "435788 (antisense e[5mC]*e[5mC]*dT*dG*dT*dG*dA*dG*dT*dG*dT*dG*eA*eG) [compound 435788]"
test_target = "human Factor 7 mRNA"
cat = "moderate"

[[record]]
substance = "435486 (antisense eG*eT*d[5mC]*d[5mC]*dT*dG*dG*dG*dT*d[5mC]*dA*dT*e[5mC]*eA) [compound 435486]"
test_target = "human Factor 7 mRNA"
cat = "high"

[[record]]
substance = "435791 (antisense eA*eT*dG*dA*dG*dA*dA*dA*dT*dG*d[5mC]*dT*eT*eT) [compound 435791]"
test_target = "human Factor 7 mRNA"
cat = "low"

[[record]]
substance = "435849 (antisense eT*eG*d[5mC]*d[5mC]*dG*dT*dA*dG*dT*dG*dG*d[5mC]*e[5mC]*eG) [compound 435849]"
test_target = "human Factor 7 mRNA"
cat = "moderate"

[[record]]
substance = "435693 (antisense eG*eG*d[5mC]*dA*dG*dT*d[5mC]*d[5mC]*dT*dG*dG*dG*eT*e[5mC]) [compound 435693]"
test_target = "human Factor 7 mRNA"
cat = "moderate"

[[record]]
substance = "435840 (antisense eG*eG*dG*d[5mC]*d[5mC]*d[5mC]*dG*d[5mC]*d[5mC]*dA*d[5mC]*dT*eG*eG) [compound 435840]"
test_target = "human Factor 7 mRNA"
cat = "low"

[[record]]
substance = "435830 (antisense eT*eG*dA*dT*dT*dT*dT*dG*d[5mC]*dA*dA*dA*eG*eA) [compound 435830]"
test_target = "human Factor 7 mRNA"
cat = "low"


Now consider a different substance.
Which category fits this record: 435665 (antisense eA*eG*dG*dT*dA*dT*dT*dT*dT*dT*d[5mC]*d[5mC]*eA*e[5mC]) [compound 435665]
low
